- MEASURED_ON: recombinant human ATX (Homo sapiens)
- PROTOCOL_TEXT: Choline detection assay for ATX
- Type: biochemical
- CONDITION_NOTES: table of g1-g15 (β-keto phosphonates); 10 μM test compound; activity without test compound = 100%
Exercise: for every item that follows, state its recorded ATX activity (%) 10 μM.
Use % as the unit, but write only the number.

The compound CCCCCCCCCCCCCCCC(=O)N[C@H](Cc1ccc(OCc2ccccc2)cc1)C(=O)CP(=O)(O)O on recombinant human ATX (Homo sapiens): ATX activity (%) 10 μM was 82

The compound CCCCCCCCCCCCCCCC(=O)N[C@@H](Cc1ccc(OCCC)cc1)C(=O)CP(=O)(O)O on recombinant human ATX (Homo sapiens): ATX activity (%) 10 μM was 97

The compound CCCCCCCCCCCCCCCC(=O)N[C@H](Cc1ccc(OCCCCC)cc1)C(=O)CP(=O)(O)O on recombinant human ATX (Homo sapiens): ATX activity (%) 10 μM was 84

The compound CCCCCCCCCCCCCCCC(=O)N[C@@H](Cc1ccc(OCc2ccccc2)cc1)C(=O)CP(=O)(O)O on recombinant human ATX (Homo sapiens): ATX activity (%) 10 μM was 71

The compound CCCCCCCCCCCCCCCC(=O)N[C@H](Cc1ccc(OC)cc1)C(=O)CP(=O)(O)O on recombinant human ATX (Homo sapiens): ATX activity (%) 10 μM was 71

The compound CCCCCCCCCCCCCCCC(=O)N[C@@H](Cc1ccc(OCc2ncc(C)c(OC)c2C)cc1)C(=O)CP(=O)(O)O on recombinant human ATX (Homo sapiens): ATX activity (%) 10 μM was 74

The compound CCCCCCCCCCCCCCCC(=O)N[C@@H](Cc1ccc(OC)cc1)C(=O)CP(=O)(O)O on recombinant human ATX (Homo sapiens): ATX activity (%) 10 μM was 68

The compound CCCCCCCCCCCCCCCC(=O)N[C@H](Cc1ccc(OCCC)cc1)C(=O)CP(=O)(O)O on recombinant human ATX (Homo sapiens): ATX activity (%) 10 μM was 97

The compound CCCCCCCCCCCCCCCC(=O)N[C@@H](Cc1ccc(OCCCCC)cc1)C(=O)CP(=O)(O)O on recombinant human ATX (Homo sapiens): ATX activity (%) 10 μM was 83

* * *

- MEASURED_ON: recombinant human ATX (Homo sapiens)
- PROTOCOL_TEXT: Choline detection assay for ATX
- Type: biochemical
- CONDITION_NOTES: Table 1 (f1-f34); 100 μM test compound; activity without test compound = 100%; 100 µM
Exercise: for every item that follows, state its recorded ATX activity (%) 100 μM.
Use % as the unit, but write only the number.

The compound CCCCCCCCCCCCCCCC(=O)N[C@@H](Cc1ccc(OCCCCC)cc1)C(O)CP(=O)(O)O (single isomer, unassigned) [f29] on recombinant human ATX (Homo sapiens): ATX activity (%) 100 μM was 67

The compound CCCCCCCCCCCCCCCC(=O)N[C@H](Cc1ccc(OCCC)cc1)C(O)CP(=O)(O)O (single isomer, unassigned) [f23] on recombinant human ATX (Homo sapiens): ATX activity (%) 100 μM was 72

The compound CCCCCCCCCCCCCCCC(=O)N[C@@H](Cc1ccc(OCc2ccccc2)cc1)C(O)CP(=O)(O)O (single isomer, unassigned) [f8] on recombinant human ATX (Homo sapiens): ATX activity (%) 100 μM was 78

* * *

- MEASURED_ON: recombinant human ATX (Homo sapiens, UniProt Q13822)
- PROTOCOL_TEXT: Choline detection assay for ATX
- Type: biochemical
- CONDITION_NOTES: Table 1 (f1-f34); 100 μM test compound; activity without test compound = 100%; 100 µM
Exercise: for every item that follows, state its recorded ATX activity (%) 100 μM.
Use % as the unit, but write only the number.

So, CCCCCCCCCCCCCCCC(=O)N[C@H](Cc1ccc(OCCCCC)cc1)C(O)CP(=O)(O)O (single isomer, unassigned) [f27] ? Its ATX activity (%) 100 μM was 80

So, CCCCCCCCCCCCCCCC(=O)N[C@H](Cc1ccc(OCc2ccccc2)cc1)C(O)CP(=O)(O)O (single isomer, unassigned) [f9] ? Its ATX activity (%) 100 μM was 60

So, CCCCCCCCCCCCCCCC(=O)N[C@H](Cc1ccc(OCCC)cc1)C(O)CP(=O)(O)O (single isomer, unassigned) [f24] ? Its ATX activity (%) 100 μM was 90

So, CCCCCCCCCCCCCCCC(=O)N[C@@H](Cc1ccc(OCc2ccccc2)cc1)C(O)CP(=O)(O)O (single isomer, unassigned) [f7] ? Its ATX activity (%) 100 μM was 68

So, CCCCCCCCCCCCCCCC(=O)N[C@@H](Cc1ccc(OCCCCC)cc1)C(O)CP(=O)(O)O (single isomer, unassigned) [f30] ? Its ATX activity (%) 100 μM was 70

So, CCCCCCCCCCCCCCCC(=O)N[C@H](Cc1ccc(OC)cc1)C(O)CP(=O)(O)O (single isomer, unassigned) [f19] ? Its ATX activity (%) 100 μM was 57

So, CCCCCCCCCCCCCCCC(=O)N[C@H](Cc1ccc(OC)cc1)C(O)CP(=O)(O)O (single isomer, unassigned) [f20] ? Its ATX activity (%) 100 μM was 82

So, CCCCCCCCCCCCCCCC(=O)N[C@@H](Cc1ccc(OCCC)cc1)C(O)CP(=O)(O)O (single isomer, unassigned) [f26] ? Its ATX activity (%) 100 μM was 83

So, CCCCCCCCCCCCCCCC(=O)N[C@H](Cc1ccc(OCCCCC)cc1)C(O)CP(=O)(O)O (single isomer, unassigned) [f28] ? Its ATX activity (%) 100 μM was 70

So, CCCCCCCCCCCCCCCC(=O)N[C@H](Cc1ccc(OCc2ncc(C)c(OC)c2C)cc1)C(O)CP(=O)(O)O (single isomer, unassigned) [f16] ? Its ATX activity (%) 100 μM was 47

So, CCCCCCCCCCCCCCCC(=O)N[C@@H](Cc1ccc(OCCC)cc1)C(O)CP(=O)(O)O (single isomer, unassigned) [f25] ? Its ATX activity (%) 100 μM was 77

So, CCCCCCCCCCCCCCCC(=O)N[C@H](Cc1ccc(OCc2ccccc2)cc1)C(O)CP(=O)(O)O (single isomer, unassigned) [f6] ? Its ATX activity (%) 100 μM was 83

So, CCCCCCCCCCCCCCCC(=O)N[C@H](Cc1ccc(OCc2ccccc2)cc1)C(O)CP(=O)(O)O (single isomer, unassigned) [f5] ? Its ATX activity (%) 100 μM was 83

* * *

- MEASURED_ON: recombinant human ATX (Homo sapiens, UniProt Q13822)
- PROTOCOL_TEXT: Choline detection assay for ATX
- Format: biochemical
- CONDITION_NOTES: Table 2 (f35-f44); 100 μM test compound; activity without test compound = 100%; 100 µM
Exercise: for every item that follows, state its recorded ATX activity (%) 100 μM.
Use % as the unit, but write only the number.

So, CCCCCCCC/C=C\CCCCCCCC(=O)N[C@@H](Cc1ccc(OCc2ncc(C)c(OC)c2C)cc1)C(O)CP(=O)(O)O (single isomer, unassigned) [f42] ? Its ATX activity (%) 100 μM was 58

So, CCCCCCCC/C=C\CCCCCCCC(=O)N[C@@H](Cc1ccc(OCc2ncc(C)c(OC)c2C)cc1)C(O)CP(=O)(O)O (single isomer, unassigned) [f41] ? Its ATX activity (%) 100 μM was 15

So, CCCCCCCCCCCCCC(=O)N[C@H](Cc1ccc(OCc2ncc(C)c(OC)c2C)cc1)C(O)CP(=O)(O)O (single isomer, unassigned) [f37] ? Its ATX activity (%) 100 μM was 67

* * *

Exercise: for every item that follows, state its recorded ATX activity (%) 100 μM.
- MEASURED_ON: recombinant human ATX (Homo sapiens, UniProt Q13822)
- PROTOCOL_TEXT: Choline detection assay for ATX
- Format: biochemical
- CONDITION_NOTES: Table 1 (f1-f34); 100 μM test compound; activity without test compound = 100%; 100 µM

So, CCCCCCCCCCCCCCCC(=O)N[C@H](Cc1ccc(OCc2ncc(C)c(OC)c2C)cc1)C(O)CP(=O)(O)O (single isomer, unassigned) [f15] ? Its ATX activity (%) 100 μM was 63%

So, CCCCCCCCCCCCCCCC(=O)N[C@@H](Cc1ccc(OC)cc1)C(O)CP(=O)(O)O (single isomer, unassigned) [f21] ? Its ATX activity (%) 100 μM was 36%

So, CCCCCCCCCCCCCCCC(=O)N[C@@H](Cc1ccc(OC)cc1)C(O)CP(=O)(O)O (single isomer, unassigned) [f22] ? Its ATX activity (%) 100 μM was 69%
